- Tested on: Burkholderia cepacia
- test-name: Biofilm growth assay, multiple isolates
- Format: cell-based
- run-parameters: Table 6; inhibitory concentration in the biofilm growth assay; n = number of isolates tested
Answer each item with its documented inhibitory concentration.
Answers are plain numbers.

# compound, experimental-readout, readout-number
records = [
    ("CC1(C)CC[C@]2(C(=O)O)CC[C@]3(C)C(=CC[C@@H]4[C@@]5(C)CC[C@H](O)C(C)(C)[C@@H]5CC[C@]43C)[C@@H]2C1 [Oleanolic acid, reference compound]", "inhibitory concentration", 0.5),
]

Now examine the next entry.
Item CC1(C)CC[C@]2(C(=O)O)CC[C@]3(C)C(=CCC4[C@@]5(C)Cc6c(n[nH]c6N)C(C)(C)C5CC[C@]43C)C2C1 (stereo in doubt) [Compound 1] with Burkholderia cepacia - inhibitory concentration?
0.25

###

- Test system: P. aeruginosa
- test-name: Biofilm growth assay (spreading biofilm on semi-solid agar)
- Type: cell-based
- run-parameters: Pseudomonas aeruginosa; Table 4; concentration that reduces the area of the spreading biofilm by >= 85%; read-out: P. aeruginosa
experimental-readout: IC85 (µg/mL)
Give bare numbers, in µg/mL.

Reference set (3 entries):
# compound, subject-of-test, readout-number
rows = [
    ("CC1(C)CC[C@]2(c3n[nH]c(O)c3CCO)CC[C@]3(C)C(=CCC4[C@@]5(C)Cc6c(n[nH]c6N)C(C)(C)C5CC[C@]43C)C2C1 (stereo partly shown)", "P. aeruginosa", 0.5),
    ("CC1(C)CC[C@]2(c3n[nH]c(O)c3N3CCOCC3)CC[C@]3(C)C(=CCC4[C@@]5(C)Cc6c(n[nH]c6N)C(C)(C)C5CC[C@]43C)C2C1 (stereo partly shown)", "P. aeruginosa", 0.25),
    ("CN(C)CCc1c([C@]23CCC(C)(C)CC2C2=CCC4[C@@]5(C)Cc6c(n[nH]c6N)C(C)(C)C5CC[C@@]4(C)[C@]2(C)CC3)n[nH]c1O (stereo partly shown)", "P. aeruginosa", 0.5),
]

For every record below, what is its IC85?
1. CC1(C)CC[C@]2(c3n[nH]c(O)c3CCNC(N)=O)CC[C@]3(C)C(=CCC4[C@@]5(C)Cc6c(n[nH]c6N)C(C)(C)C5CC[C@]43C)C2C1 (stereo partly shown)
2. CC1(C)CC[C@]2(C(=O)Nc3nnc(N)s3)CC[C@]3(C)C(=CCC4[C@@]5(C)Cc6c(n[nH]c6N)C(C)(C)C5CC[C@]43C)C2C1 (stereo partly shown)
3. CC1(C)CC[C@]2(C(=O)Nc3cc(S)n[nH]3)CC[C@]3(C)C(=CCC4[C@@]5(C)Cc6c(n[nH]c6N)C(C)(C)C5CC[C@]43C)C2C1 (stereo partly shown)
4. CC1(C)CC[C@]2(C(=O)n3cnc(S)n3)CC[C@]3(C)C(=CCC4[C@@]5(C)Cc6c(n[nH]c6N)C(C)(C)C5CC[C@]43C)C2C1 (stereo partly shown)
5. CC1(C)CC[C@]2(C(=O)NO)CC[C@]3(C)C(=CCC4[C@@]5(C)Cc6c(n[nH]c6N)C(C)(C)C5CC[C@]43C)C2C1 (stereo partly shown)

1. 0.5
2. 0.5
3. 0.25
4. 0.5
5. 0.25

Lab note: each compound below needs its IC85 filled in.
1. Cc1nnc(S)n1NC(=O)[C@]12CCC(C)(C)CC1C1=CCC3[C@@]4(C)Cc5c(n[nH]c5N)C(C)(C)C4CC[C@@]3(C)[C@]1(C)CC2 (stereo partly shown)
2. CC1(C)CC[C@]2(c3n[nH]c(O)c3F)CC[C@]3(C)C(=CCC4[C@@]5(C)Cc6c(n[nH]c6N)C(C)(C)C5CC[C@]43C)C2C1 (stereo partly shown)

[1, 0.25]

Could you report IC85 for every entry in the following list?
1. CC1(C)CC[C@]2(CN)CC[C@]3(C)C(=CCC4[C@@]5(C)Cc6c(n[nH]c6N)C(C)(C)C5CC[C@]43C)C2C1 (stereo partly shown)
2. Cc1c([C@]23CCC(C)(C)CC2C2=CCC4[C@@]5(C)Cc6c(n[nH]c6N)C(C)(C)C5CC[C@@]4(C)[C@]2(C)CC3)n[nH]c1O (stereo partly shown)
3. CC1(C)CC[C@]2(c3cc(N)[nH]n3)CC[C@]3(C)C(=CCC4[C@@]5(C)Cc6c(n[nH]c6N)C(C)(C)C5CC[C@]43C)C2C1 (stereo partly shown)

4
0.5
0.5

###

- System: P. aeruginosa
- test-name: Biofilm growth assay (spreading biofilm on semi-solid agar)
- Type: cell-based
- run-parameters: Pseudomonas aeruginosa; Table 2; concentration that reduces the area of the spreading biofilm by >= 85%; read-out: P. aeruginosa
- Experimental: "Biofilm Growth Assay" refers to an assay performed on semi-solid agar surface where the bacteria collectively move out from an inoculation point. […] The biofilm growth assay was carried out to measure swarming or biofilm spreading on semi-solid agar media in round plates (for example, 100 × 15 mm), also referred to as Petri dishes. […] The area of the zone of spreading bacteria was then measured and replicates are averaged. […]
For each entry below, report its IC85 value.
Answers are plain numbers, in µg/mL.

Sample records with IC85:
# molecule, experimental-readout, endpoint-unit, readout-number
rows = [
    ("CC1=C2[C@@H]3CC(C)(C)CC[C@]3(C(=O)O)CC[C@@]2(C)[C@]2(C)CC[C@H]3C(C)(C)c4n[nH]c(N)c4C[C@]3(C)C2C1 (some centres unmarked) [Compound 4]", "IC85", "µg/mL", 0.25),
    ("CC1(C)CC[C@]2(C(=O)O)CC[C@]3(C)C(=C(c4c[nH]c5ccccc45)CC4[C@@]5(C)Cc6c(n[nH]c6N)C(C)(C)[C@@H]5CC[C@]43C)[C@@H]2C1 (some centres unmarked) [Compound 8]", "IC85", "µg/mL", 0.25),
    ("CN(C)c1ccc(C2=C3C4CC(C)(C)CC[C@]4(C(=O)O)CC[C@@]3(C)[C@]3(C)CCC4C(C)(C)c5n[nH]c(N)c5C[C@]4(C)C3C2)cc1 (stereo in doubt) [Compound 10]", "IC85", "µg/mL", 0.5),
    ("CC1(C)CC[C@]2(C(=O)O)CC[C@]3(C)C(=C(c4ccc5c(c4)CCN5)CC4[C@@]5(C)Cc6c(n[nH]c6N)C(C)(C)C5CC[C@]43C)C2C1 (some centres unmarked) [Compound 11]", "IC85", "µg/mL", 0.5),
]

Continue with the next molecule.
Entry CC1(C)CC[C@]2(C(=O)O)CC[C@]3(C)C(=C(c4c[nH]c(CN5CCOCC5)c4)CC4[C@@]5(C)Cc6c(n[nH]c6N)C(C)(C)[C@@H]5CC[C@]43C)[C@@H]2C1 (some centres unmarked) [Compound 9] has what IC85?
0.5

###

- System: P. aeruginosa
- test-name: Biofilm growth assay (spreading biofilm on semi-solid agar)
- Assay type: cell-based
- run-parameters: Pseudomonas aeruginosa, read-out: P. aeruginosa (µg/ml)
For each entry below, report its IC85 value.
One number for each entry, in µg/mL.

The following molecules have reported results that may help.
# molecule, subject-of-test, endpoint-unit, readout-number
data = [
    ("CC1(C)CC[C@]2(c3n[nH]c(O)c3N3CCNCC3)CC[C@]3(C)C(=CCC4[C@@]5(C)Cc6c(n[nH]c6N)C(C)(C)C5CC[C@]43C)C2C1 (some centres unmarked)", "P. aeruginosa", "µg/mL", 0.5),
    ("CC1(C)CC[C@]2(c3cc(O)[nH]n3)CC[C@]3(C)C(=CCC4[C@@]5(C)Cc6c(n[nH]c6N)C(C)(C)C5CC[C@]43C)C2C1 (some centres unmarked)", "P. aeruginosa", "µg/mL", 0.5),
    ("CC1(C)CC[C@]2(C(=O)Nc3nnn[nH]3)CC[C@]3(C)C(=CCC4[C@@]5(C)Cc6c(n[nH]c6N)C(C)(C)C5CC[C@]43C)C2C1 (some centres unmarked)", "P. aeruginosa", "µg/mL", 0.5),
]

Working through the 2 molecules below one at a time, give IC85 for each.
1. CN1CCN(c2c([C@]34CCC(C)(C)CC3C3=CCC5[C@@]6(C)Cc7c(n[nH]c7N)C(C)(C)C6CC[C@@]5(C)[C@]3(C)CC4)n[nH]c2O)CC1 (some centres unmarked)
2. CC1(C)CC[C@]2(C(=O)O)CC[C@]3(C)C(=CC[C@@H]4[C@@]5(C)C[C@@H](O)[C@H](O)C(C)(C)[C@@H]5CC[C@]43C)[C@@H]2C1 [Maslinic acid, reference compound]

1
4

###

- Test system: P. aeruginosa
- test-name: Biofilm growth assay (spreading biofilm on semi-solid agar)
- Type: cell-based
- run-parameters: Pseudomonas aeruginosa; Table 2; concentration that reduces the area of the spreading biofilm by >= 85%; read-out: P. aeruginosa
experimental-readout: IC85 (µg/mL)
Answers are plain numbers, in µg/mL.

Please review the following examples before continuing.
# molecule, subject-of-test, readout-number
data = [
    ("CC1(C)CC[C@]2(C(=O)O)CC[C@]3(C)C(=C(c4ccco4)CC4[C@@]5(C)Cc6c(n[nH]c6N)C(C)(C)C5CC[C@]43C)C2C1 (stereo partly shown) [Compound 7]", "P. aeruginosa", 0.25),
    ("CC1(C)CC[C@]2(C(=O)O)CC[C@]3(C)C(=C(c4cccnc4)CC4[C@@]5(C)Cc6c(n[nH]c6N)C(C)(C)[C@@H]5CC[C@]43C)[C@@H]2C1 (stereo partly shown) [Compound 12]", "P. aeruginosa", 0.5),
    ("C/C=C/C1=C2[C@@H]3CC(C)(C)CC[C@]3(C(=O)O)CC[C@@]2(C)[C@]2(C)CC[C@H]3C(C)(C)c4n[nH]c(N)c4C[C@]3(C)C2C1 (stereo partly shown) [Compound 5]", "P. aeruginosa", 0.5),
]

Any idea what IC85 was measured for C[C@@H]1c2n[nH]c(N)c2C[C@]2(C)C3CC=C4[C@@H]5CC(C)(C)CC[C@]5(C(=O)O)CC[C@@]4(C)[C@]3(C)CC[C@@H]12 (stereo partly shown) [Compound 3] ?
0.5
